tested_target: synthetic amyloid fibrils of recombinant human λ6 light chain variable domain of patient Wil (rVλ6Wil) (human)
method: ELISA; EuLISA: rVλ6Wil fibrils coated and dried on NUNC Maxisorb wells (8 µg/mL, 50 µL, overnight 37 °C), blocked with 1% BSA; biotinylated p5+14 1 x 10^-10 to 1 x 10^-6 M, 1 h at 37 °C, PBS with 0.05% Tween 20; europium/streptavidin detection; n = 3
Where no end group is shown, it is not given here.
readout_kind: pEC50
pEC50 is a log-scale quantity: -log10 of the concentration expressed in molar.

What does the record list as pEC50 for C(maleimide‑biotin)GGGYSKAQKAQAKQAKQAQKAQKAQAKQAKQAQKAQKAQAKQAKQ [biotinylated p5+14 (with a cysteine residue at the N-terminal)] ? 7.82

The measurements presented in this section are drawn from paper PMC4442108.
